# studySystem: T1, human GIP receptor (human) (UniProt P48546)
# T1 sequence (looked up): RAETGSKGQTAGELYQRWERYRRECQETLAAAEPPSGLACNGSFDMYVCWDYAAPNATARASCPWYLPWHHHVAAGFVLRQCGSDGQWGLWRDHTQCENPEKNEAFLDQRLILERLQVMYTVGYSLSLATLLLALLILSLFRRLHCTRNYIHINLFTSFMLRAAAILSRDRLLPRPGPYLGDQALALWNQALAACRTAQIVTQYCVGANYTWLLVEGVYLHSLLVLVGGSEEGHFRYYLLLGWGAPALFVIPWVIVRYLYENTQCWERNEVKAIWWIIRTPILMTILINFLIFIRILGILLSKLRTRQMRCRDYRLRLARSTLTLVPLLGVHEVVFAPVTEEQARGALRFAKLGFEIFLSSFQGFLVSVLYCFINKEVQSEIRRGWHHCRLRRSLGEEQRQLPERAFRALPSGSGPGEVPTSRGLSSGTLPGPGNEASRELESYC
# assayDetails: cell-based or functional assay
Starred links: 1 amine or outer side, 2 acyl side, 3 side chain; linkers in the order of their positions; H or OH if unused. Non-standard residues stand in square brackets, D forms with d. Groups on a side chain read outwards from the residue. No end group written: not given here. *: point of attachment. C20 diacid = O=C(O)CCCCCCCCCCCCCCCCCCC(=O)*; γGlu = O=C(O)[C@H](CCC(=O)[*:2])N[*:1]; αMeL = CC(C)C[C@](C)(N)C(=O)O; AEEA = NCCOCCOCC(=O)O; Aib = CC(C)(N)C(=O)O
resultType: Relative cAMP EC50

[[record]]
binder = "Y[Aib]QGTFTSDYSI[αMeL]LDKQAAK([AEEA-AEEA-γGlu-C20 diacid])QFVEWLLAGGPSSGEPPPGEG-NH2 [Example 320]"
observedvalue = "274 pM"

[[record]]
binder = "YXQGTXTSDXXIXLDXKAQXXFIEXLTEGGPSSGEPPPEGTEE (acylated Lys (γGlu)2-C18 diacid; non-natural residues; C-terminal amide; synthetic construct; SITE 2: note = 2-Aminoisobutyric Acid; SITE 6: note = alpha-methyl-2-fluoro-L-phenylalanine; SITE 10: note = 3-(4-Pyridyl)-L-alanine; SITE 11: note = alpha-methyl-L-serine; SITE 13: note = alpha-methyl-leucine; SITE 16: note = L-ornithine; SITE 17: note = Lysine is chemically mo) [Example 597]"
observedvalue = "64.3 pM"

[[record]]
binder = "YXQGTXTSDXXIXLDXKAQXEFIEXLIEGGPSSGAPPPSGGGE (Non-natural residues; K acylated AEEA-(γGlu)2-C18 diacid; C-terminal amide; synthetic construct; SITE 2: note = 2-Aminoisobutyric Acid; SITE 6: note = alpha-methyl-2-fluoro-L-phenylalanine; SITE 10: note = 3-(4-Pyridyl)-L-alanine; SITE 11: note = alpha-methyl-L-serine; SITE 13: note = alpha-methyl-leucine; SITE 16: note = L-ornithine; SITE 17: note = Lysine is chemically mo) [Example 1180]"
observedvalue = "6.02 pM"

[[record]]
binder = "YXQGTXTSDXXIXLDXKAQXXFIEXLTEGGPSSGEPPPSGTGE (synthetic construct; SITE 2: note = 2-Aminoisobutyric Acid; SITE 6: note = alpha-methyl-2-fluoro-L-phenylalanine; SITE 10: note = 3-(4-Pyridyl)-L-alanine; SITE 11: note = alpha-methyl-L-serine; SITE 13: note = alpha-methyl-leucine; SITE 16: note = L-ornithine; SITE 17: note = Lysine is chemically mo) [Example 543]"
observedvalue = "31.9 pM"

[[record]]
binder = "YXQGTXTSDYSILLDKKAQXAFIEFLEEGGPSSGAPPPSEG (not fully specified; synthetic construct; SITE 2: note = 2-Aminoisobutyric Acid; SITE 6: note = alpha-methyl-2-fluoro-L-phenylalanine; SITE 17: note = Lysine is chemically modified through conjugation of the epsilon-amino group of the Lysine side chain with (2-[2-(2-Amino-ethoxy)-ethoxy]-acetyl)-(gamma-Glu)-CO-(CH2) 16-) [Example 412]"
observedvalue = "35.1 pM"

[[record]]
binder = "YXQGTFTSDFSXXLDKKAQXAFIEYLLEXGPSSGAPPPSEG (synthetic construct; SITE 2: note = 2-Aminoisobutyric Acid; SITE 12: note = L-ornithine; SITE 13: note = alpha-methyl-leucine; SITE 17: note = Lysine is chemically modified through conjugation of the epsilon-amino group of the Lysine side chain with (2-[2-(2-Amino-ethoxy)-ethoxy]-acetyl)2-(gamma-Glu)) [Example 71]"
observedvalue = "105 pM"

